Data origin: patent US20240317851A1

Recorded measurements of Top MFI, one per entry
# Study system: T1, human Claudin 3 (human, UniProt O15551 1-220)
# T1 construct: whole, on cells; also called CLDN3
# T1 sequence (looked up): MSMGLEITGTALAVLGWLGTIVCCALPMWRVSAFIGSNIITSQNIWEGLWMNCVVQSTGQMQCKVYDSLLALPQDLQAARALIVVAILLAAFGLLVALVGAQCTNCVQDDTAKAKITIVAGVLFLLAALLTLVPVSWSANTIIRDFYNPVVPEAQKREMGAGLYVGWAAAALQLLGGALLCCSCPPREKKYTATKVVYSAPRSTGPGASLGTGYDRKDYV
# Experimental details: flow cytometry, CHOK1/H_CLDN3 cells, Ab titrated from 100 nM
Output spec: single numeric token, no unit.

Binder	Result number
97-C10E1-2-P1.z4 (antibody, V domains shown) VH: QVQLVQSGAEVKKPGASVKVSCKASGYAFTGYTMNWVRQAPGQGLEWIGLSNPYNAGTIYNQKFKGRVTMTVDKSTSTVYMELSSLRSEDTAVYYCARNYYYGSSYAYYYAMDYWGQGTTVTVSS VL: DAQMTQSPSSLSASVGDRVTITCRSSTGAVTTSNYANWVQQKPGKAFKGLIGGTNNRAPGVPARFSGSLSGTDAALTISSLQPEDFATYFCALWYSNHWVFGGGTKVEIK	263

Next binder, please.
Read off the recorded Top MFI for 97-C10E1-2-P1.z15 (antibody, V domains shown) VH: QVQLQQSGAEVKKPGASMKISCKASGYAFTGYTMNWVRQAPGQNLEWIGLSNPYNAGTIYNQKFKGRATLTVDKSTSTAYMELLSLRSEDTAVYYCARNYYYGSSYAYYYAMDYWGQGTTVTVSS VL: DIVVTQSPSSLSTSVGDRVTITCRSSTGAVTTSNYANWVQEKPGKAFKGLIGGTNNRAPGVPARFSGSLSGDDAALTISSAQPEDFATYFCALWYSNHWVFGGGTKVEIK 138
